experiment: Single ascending oral dose study in healthy volunteers: plasma pharmacokinetics; format: in vivo, human; conditions: human, plasma, oral, 50 mg; read-out: Cmax, Median
outcome_measure: Cmax (ng/mL)
Numbers only, in ng/mL.

*Q* Please report the measured Cmax for `Cn1cc(S(=O)(=O)[C@@](C)(F)C2CCN(C(=O)Nc3ccon3)CC2)c(C(F)F)n1`
*A* 470

###

Assay: Single ascending oral dose study in healthy volunteers: plasma pharmacokinetics
Assay type: in vivo, human
Details: human, plasma, oral, 100 mg; read-out: Tmax, Mean
Excerpt: This example describes the first-in-human study of Compound I. Based on its mechanism of action, Compound I may offer a targeted therapy for patients with DCM caused by genetic or nongenetic mechanisms. […] The concentrations of Compound I in human plasma and urine were quantitated by high performance liquid chromatography with tandem mass spectrometric detection (LC MS/MS) (Biological sample analysis study report Alturas AD17-726). […]
outcome_measure: Tmax (h)
Numbers only, in h.

*Q* Complete the entry with Tmax for Cn1cc(S(=O)(=O)[C@@](C)(F)C2CCN(C(=O)Nc3ccon3)CC2)c(C(F)F)n1 [Compound I]
*A* 4.5
